Source of measurements: patent US6211227A

System: bladder
PROTOCOL NOTES: animal or person
DETAILS: Rattus norvegicus, po, 2 h, read-out: Contraction interval
Collected response vs control in vivo at 1 mg/kg values appear next to each entry.
Numeric answer only, unit % assumed.

Before answering, review these 5 worked examples.
COMPOUND: CC(C)(O)C(=O)Nc1cccc2c1C(=O)c1sccc1CS2(=O)=O [Compound 3-12]
RESULT: 153

COMPOUND: CC(O)(C(=O)Nc1cccc2c1C(=O)c1sccc1CS2(=O)=O)C(F)(F)F (centres unmarked) [Compound 1-1]
RESULT: 166

COMPOUND: COc1ccc(NC(=O)C(C)(O)C(F)(F)F)c2c1S(=O)(=O)Cc1ccsc1C2=O (centres unmarked) [Compound 1-28]
RESULT: 139

COMPOUND: CC(O)(C(=O)Nc1ccc(Cl)c2c1C(=O)c1sccc1CS2(=O)=O)C(F)(F)F (centres unmarked) [Compound 1-33]
RESULT: 137

COMPOUND: CC1(C)Oc2ccc(C#N)cc2C(N2CCCC2=O)C1O (centres unmarked) [Cromakalim, cromakalim, reference compound]
RESULT: 133

Which measured response vs control in vivo at 1 mg/kg belongs to O=C1c2sccc2CS(=O)(=O)c2cccc(NC(=O)C3CCCO3)c21 (centres unmarked) [Compound 3-9] , tested on bladder?
128

Which response vs control in vivo at 1 mg/kg is reported with bladder for this entry: CC(O)(C(=O)Nc1cccc2c1C(=O)c1ccccc1CS2(=O)=O)C(F)(F)F (centres unmarked) [Compound 1-3] ?
135

bladder / response vs control in vivo at 1 mg/kg / CC(O)(C(=O)Nc1ccc2c(c1)C(=O)c1sccc1CS2(=O)=O)C(F)(F)F (centres unmarked) [Compound 1-9] : value?
123

Notebook: pull reported response vs control in vivo at 1 mg/kg for bladder, entry CC(O)(C(=O)Nc1ccc2c(c1)S(=O)(=O)Cc1ccsc1C2=O)C(F)(F)F (centres unmarked) [Compound 1-2]
136

Fill in the recorded response vs control in vivo at 1 mg/kg for this compound, with bladder as test system: COc1ccc2c(c1)CS(=O)(=O)c1cccc(NC(=O)C(C)(O)C(F)(F)F)c1C2=O (centres unmarked) [Compound 1-24]
121

Lookup: response vs control in vivo at 1 mg/kg / bladder / CC(O)(C(=O)Nc1ccc(F)c2c1C(=O)c1sccc1CS2(=O)=O)C(F)(F)F (centres unmarked) [Compound 1-35]
133

Tell me reported response vs control in vivo at 1 mg/kg for CC(O)(C(=O)Nc1cccc2c1C(=O)c1cccc(F)c1CS2(=O)=O)C(F)(F)F (centres unmarked) [Compound 1-19] , tested with bladder.
139

Lookup: response vs control in vivo at 1 mg/kg / bladder / CC(O)(C(=O)Nc1cccc2c1C(=O)c1ccoc1CS2(=O)=O)C(F)(F)F (centres unmarked) [Compound 1-7]
138

API: value(readout=response vs control in vivo at 1 mg/kg, system=bladder) for record O=C1c2ccc(NC(=O)C(F)(F)F)cc2S(=O)(=O)Cc2ccsc21 [Compound 3-5]
152

* * *

Reported response vs control in vivo at 1 mg/kg is given for each of the following molecules.
System: bladder
PROTOCOL NOTES: animal or person
DETAILS: Rattus norvegicus, po, 1 h, read-out: Contraction interval
Express your answer in %, writing the number without its unit.

Record excerpt, results attached:
MOLECULE: O=C1c2sccc2CS(=O)(=O)c2cccc(NC(=O)C3CCCO3)c21 (stereo not drawn)
RESULT UNIT: %
response vs control in vivo at 1 mg/kg: 122

MOLECULE: CC(O)(C(=O)Nc1cccc2c1C(=O)c1sccc1CS2(=O)=O)C(F)(F)F (stereo not drawn)
RESULT UNIT: %
response vs control in vivo at 1 mg/kg: 138

MOLECULE: CC(O)(C(=O)Nc1ccc(Cl)c2c1C(=O)c1sccc1CS2(=O)=O)C(F)(F)F (stereo not drawn)
RESULT UNIT: %
response vs control in vivo at 1 mg/kg: 124

MOLECULE: COc1ccc(NC(=O)C(C)(O)C(F)(F)F)c2c1S(=O)(=O)Cc1ccsc1C2=O (stereo not drawn)
RESULT UNIT: %
response vs control in vivo at 1 mg/kg: 127

MOLECULE: COc1ccc2c(c1)CS(=O)(=O)c1cccc(NC(=O)C(C)(O)C(F)(F)F)c1C2=O (stereo not drawn)
RESULT UNIT: %
response vs control in vivo at 1 mg/kg: 140

Okay, now this molecule:
Suppose we examine the molecule CC(O)(C(=O)Nc1ccc(F)c2c1C(=O)c1sccc1CS2(=O)=O)C(F)(F)F (stereo not drawn) ; what response vs control in vivo at 1 mg/kg value has been reported?
115
